Data provenance: patent US9540358B2

Test system: A549luc cells
Experiment: Colony formation (clonogenic) assay, A549luc
Assay type: cell-based
Details: 7.5 μM, 7 days
Description: Protocol for clonogenic assay follows Sangodkar et al. J Clin Invest 2012; 122:2637-51. Cell culture and staining: For both A549luc and H292 cells, 500 cells were seeded into each well of a 6-well plate and allowed to attach for 24 hours before drug treatment. […] Colonies were counted using the Colony Counter plugin in ImageJ, with colony size defined as between 4 and 400 square pixels, and minimum circularity set at 0.6. […]
Please respond with reported number of colonies for every item in the list.
Answers are plain numbers.

Worked examples follow.
[[record]]
compound = "O=S(=O)(NCC(O)CN1c2ccccc2CCc2ccccc21)c1ccc(OC(F)(F)F)cc1 (centres unmarked)"
observation_type = "number of colonies"
measured_value = 118.5

[[record]]
compound = "O=S(=O)(NCCCN1c2ccccc2CCc2ccc(Cl)cc21)c1ccc(OC(F)(F)F)cc1"
observation_type = "number of colonies"
measured_value = 111.5

[[record]]
compound = "O=S(=O)(NC[C@H](O)CN1c2ccccc2CCc2ccccc21)c1ccc(OC(F)(F)F)cc1"
observation_type = "number of colonies"
measured_value = 105

[[record]]
compound = "O=S(=O)(NC1CCCC(N2c3ccccc3CCc3ccccc32)C1)c1ccc(OC(F)(F)F)cc1 (centres unmarked)"
observation_type = "number of colonies"
measured_value = 0


Below: the item to evaluate.
Exam item: Enter measured number of colonies, system A549luc cells, for the compound shown: "O=S(=O)(NC[C@@H](O)CN1c2ccccc2CCc2ccccc21)c1ccc(OC(F)(F)F)cc1"
Marked response: 118.5

###

assay: Cell viability assay (MTT, IC50 determination); type: cell-based; details: human, H1650 lung cancer cells, @ 20 μM
observation type: viability at 48 h, 20 µM (%)
One number for each entry, in %.

Exam item: Please supply the value of reported viability at 48 h, 20 µM for the item "O=S(=O)(NCCCN1c2ccccc2CCc2ccc(Cl)cc21)c1cnc(Cl)c(Br)c1"
Marked response: 65

###

assay: Cell viability assay (MTT, IC50 determination); assay type: cell-based; settings: human, H1650 lung cancer cells, @ 40 μM
observation type: viability at 48 h, 40 µM (%)
Give bare numbers, in %.

Exam item: Quickly give me recorded viability at 48 h, 40 µM for "O=S(=O)(NCCCN1c2ccccc2CCc2ccccc21)c1cccnc1"
Marked response: 50

###

So I've got a bunch of molecules here, and I need their number of colonies values.
system: H292 cells; test: Colony formation (clonogenic) assay, H292; assay type: cell-based; settings: 5 μM, 8 days
Answers are plain numbers.

Worked cases, answers included:
[[record]]
molecule = "O=S(=O)(NC[C@H](O)CN1c2ccccc2CCc2ccccc21)c1ccc(OC(F)(F)F)cc1"
observation_type = "number of colonies"
measured_value = 109.5

[[record]]
molecule = "O=S(=O)(NC1CCCC(N2c3ccccc3CCc3ccccc32)C1)c1ccc(OC(F)(F)F)cc1 (centres unmarked)"
observation_type = "number of colonies"
measured_value = 40.5

[[record]]
molecule = "O=S(=O)(NCCCN1c2ccccc2CCc2ccc(Cl)cc21)c1ccc(OC(F)(F)F)cc1"
observation_type = "number of colonies"
measured_value = 95

[[record]]
molecule = "O=S(=O)(NCC(O)CN1c2ccccc2CCc2ccccc21)c1ccc(OC(F)(F)F)cc1 (centres unmarked)"
observation_type = "number of colonies"
measured_value = 107


Now look at this one.
Exam item: Tell me number of colonies reported for "O=S(=O)(NC[C@@H](O)CN1c2ccccc2CCc2ccccc21)c1ccc(OC(F)(F)F)cc1"
Marked response: 85.5
